test-method-notes: enzyme activity assay at 23° C. with purified enzyme
Assay type: biochemical
condition: wild-type set at 100%
endpoint: maximum activity as a percentage of the wild-type enzyme's activity, Fluazifop (%)
# value in %; strip the unit string

Value lookup for maximum activity as a percentage of the wild-type enzyme's activity, Fluazifop; key = MON-HT6: engineered oxygenase protein, amino acid sequence SEQ ID NO:31 (protein) MHAALSPLSQKYRFIDVQPLTGVLGAEITGVTLREPLDDNTWNEILDAFHTYQVIYFPGQAITNEQHIAFSRRFGPVDPVPLLKSIEGYPEVQMIRREANESGRVIGDDWHTDSTFLDAPPAAVVMYAREVPPYGGDTGFLSMYSAWDTLSDTMKATIEGLNVVHSATRVFGSLYQAQNRRFSNTSVKVMDVDAGDRETVHPLVVSHPVTGRRALYCNQVYCQRIEGMTDAESKPLLQFLYEHATRFDFTCRVRWKKDQVLVWDNLCTMHRAVPDYAGKFRYLTRTTVAGDKPSR
47

And what about the molecule MON-HT1: engineered oxygenase protein, amino acid sequence SEQ ID NO:14 (protein) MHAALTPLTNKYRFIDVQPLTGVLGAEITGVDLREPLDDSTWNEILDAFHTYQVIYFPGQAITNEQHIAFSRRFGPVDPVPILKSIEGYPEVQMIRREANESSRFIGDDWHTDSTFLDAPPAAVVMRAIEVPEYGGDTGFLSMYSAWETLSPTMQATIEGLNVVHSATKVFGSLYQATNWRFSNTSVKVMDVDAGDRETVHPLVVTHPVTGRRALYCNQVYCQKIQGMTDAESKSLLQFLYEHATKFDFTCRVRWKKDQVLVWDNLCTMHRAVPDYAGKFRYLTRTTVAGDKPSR ?
67
